Numbers sourced from paper PMC7845692.

System: Feline infectious peritonitis virus
Method Notes: anti-FIPV activity, cytopathic effect by visualization in Fcwf-4 cells
Setup Conditions: Alphacoronavirus 1, read-out: Feline infectious peritonitis virus EC50 CPE/visualization
Can you tell me EC50 for the items I'm about to list?
One number for each entry, in nM.

Before answering, review these 2 worked examples.
compound="C[C@H]1O[C@@H](O[C@H]2[C@@H](O)C[C@H](O[C@H]3[C@@H](O)C[C@H](O[C@H]4CC[C@@]5(C)[C@H](CC[C@@H]6[C@@H]5CC[C@]5(C)[C@@H](C7=CC(=O)OC7)CC[C@]65O)C4)O[C@@H]3C)O[C@@H]2C)C[C@H](O)[C@@H]1O [Digitoxin, digitoxin]" target="Feline infectious peritonitis virus" test_readout=EC50 measured_result=97
compound="COc1cc2c3c(c4cc(OC)c(OC)c(OC)c4c2cc1OC)CC1CCC[N+]1([O-])C3 (stereo not drawn) [031p13-3]" target="Feline infectious peritonitis virus" test_readout=EC50 measured_result=1560

// for each compound below, give its EC50
1. COc1cc2c3c(c4cc(OC)c(OC)cc4c2cc1OC)CN1CCCCC1C3 (stereo not drawn) [PQ09]
2. CCN1Cc2c(c3ccc(OC)cc3c3cc(OC)c(OC)cc23)C(O)C1 (stereo not drawn) [dbq33b]
3. COc1cc2c3c(c4cc(OC)c(OC)cc4c2cc1OC)CN1CCCC1C3 (stereo not drawn) [PI09]
4. C[C@@H]1O[C@@H](O[C@H]2C[C@@H](O)[C@]3(CO)[C@H]4[C@H](O)C[C@]5(C)[C@@H](C6=CC(=O)OC6)CC[C@]5(O)[C@@H]4CC[C@]3(O)C2)[C@H](O)[C@H](O)[C@H]1O [Ouabain, ouabain]

### Response
1. 17
2. 8
3. 62
4. 1560

###

Tested on: SARS-CoV-2
Method Notes: SARS-CoV-2 IFA against N protein in Vero E6 cells
Assay type: cell-based
Setup Conditions: Vero E6 cells, MOI 0.01, 2 d.p.i., N protein; read-out: SARS-CoV-2 EC50 IFA
Method: CPE was performed as described ([Wu et al., 2004]). For IFA, Vero E6 cells (BCRC number: 60476; derived from ATCC CRL-1586) were treated with each compound at the indicated concentration for 1 h at 37°C. […] The N protein expression was measured using a high-content image analysis system (Molecular Devices). The cell viability was determined by Cell Counting Kit-8 (CCK-8) (Sigma-Aldrich, cat #96992). EC50 and CC50 values were calculated by Prism software.
Can you tell me pEC50 for the items I'm about to list?
Numbers only, as −log10 of the molar value.

molecule="CCN1Cc2c(c3ccc(OC)cc3c3cc(OC)c(OC)cc23)C(O)C1C (centres unmarked)" test_readout=pEC50 measured_result=7.50

### Prompt // lookup pEC50 | system=SARS-CoV-2 | key= CCN1Cc2c(c3ccc(OC)cc3c3cc(OC)c(OC)cc23)C(O)C1 (centres unmarked) [dbq33b]
### Response 7.86

###

System: Feline infectious peritonitis virus
Method Notes: anti-FIPV activity, cytopathic effect by visualization in Fcwf-4 cells
Setup Conditions: Alphacoronavirus 1, read-out: Feline infectious peritonitis virus EC50 CPE/visualization
Counter-ions that a name gives are not always drawn.
Can you tell me pEC50 for the items I'm about to list?
Answers are plain numbers, as −log10 of the molar value.

Before answering, review these 3 worked examples.
molecule="C[C@]12CCC(=NOCCN)C[C@@H]1C(=O)C[C@@H]1[C@@H]2CC[C@]2(C)C(=O)CC[C@@H]12 [Istaroxime, istaroxime hydrochloride]" target="Feline infectious peritonitis virus" measured_result=5.67
molecule=C[C@]12CC[C@H](O)C[C@H]1CC[C@@H]1[C@@H]2CC[C@]2(C)[C@@H](C3=CC(=O)OC3)CC[C@]12O target="Feline infectious peritonitis virus" measured_result=6.34
molecule=CO[C@H]1C[C@H](O[C@H]2CC[C@@]3(C)[C@H](CC[C@@H]4[C@@H]3CC[C@]3(C)[C@@H](C5=CC(=O)OC5)[C@@H](OC(C)=O)C[C@]43O)C2)O[C@@H](C)[C@@H]1O target="Feline infectious peritonitis virus" measured_result=6.14

// for each molecule below, give its pEC50
1. CCN1CCc2c(c3cc(OC)c(OC)cc3c3cc(OC)ccc23)C1 [dbq29a]
2. CCN1Cc2c(c3ccc(OC)cc3c3cc(OC)c(OC)cc23)C(O)C1C (stereo not shown)
3. C[C@H]1O[C@@H](O[C@H]2[C@@H](O)C[C@H](O[C@H]3[C@@H](O)C[C@H](O[C@H]4CC[C@@]5(C)[C@H](CC[C@@H]6[C@@H]5C[C@@H](O)[C@]5(C)[C@@H](C7=CC(=O)OC7)CC[C@]65O)C4)O[C@@H]3C)O[C@@H]2C)C[C@H](O)[C@@H]1O
4. C[C@]12CC[C@H](O)C[C@H]1CC[C@@H]1[C@@H]2CC[C@]2(C)[C@@H](c3ccc(=O)oc3)CC[C@]12O [Bufalin, bufalin, reference compound]

### Response
1. 6.45
2. 7.70
3. 6.67
4. 7.72

###

Method Notes: in vitro
Setup Conditions: cat
Counter-ions that a name gives are not always drawn.
Test Readout: CC50 (µM)
Give bare numbers, in µM.

// for each compound below, give its CC50
1. C[C@H]1O[C@@H](O[C@H]2[C@@H](O)C[C@H](O[C@H]3[C@@H](O)C[C@H](O[C@H]4CC[C@@]5(C)[C@H](CC[C@@H]6[C@@H]5CC[C@]5(C)[C@@H](C7=CC(=O)OC7)CC[C@]65O)C4)O[C@@H]3C)O[C@@H]2C)C[C@H](O)[C@@H]1O [Digitoxin, digitoxin]
2. C[C@]12CCC(=NOCCN)C[C@@H]1C(=O)C[C@@H]1[C@@H]2CC[C@]2(C)C(=O)CC[C@@H]12 [Istaroxime, istaroxime hydrochloride]

### Response
0.825
7.12

###

Can you tell me CC50 for the items I'm about to list?
Method Notes: Vero E6 cytotoxicity by visualization
Assay type: cell-based
Setup Conditions: African green monkey, Vero E6 cells; read-out: SARS-CoV-2 CC50 Visualization
Answer with the figure and its unit, nothing else.

molecule="CCN1Cc2c(c3ccc(OC)cc3c3cc(OC)c(OC)cc23)C(O)C1 (stereo not drawn) [dbq33b]" measured_result="1250 nM"
molecule="CCN1Cc2c(c3ccc(OC)cc3c3cc(OC)c(OC)cc23)C(O)C1C (stereo not drawn) [dbq33b4p7]" measured_result="2500 nM"

### Prompt Query: CC50; subject: COc1cc2c3c(c4cc(OC)c(OC)cc4c2cc1OC)CN1CCCC1C3 (stereo not drawn) [PI09]
### Response 5000 nM

###

Method Notes: cell cytotoxicity by visualization (FIPV host cells)
Setup Conditions: cat
Can you tell me CC50 for the items I'm about to list?
One number for each entry, in µM.

compound="COc1cc2c3c(c4cc(OC)c(OC)cc4c2cc1OC)CN1CCCC1C3 (centres unmarked)" test_readout=CC50 u=µM measured_result=6.38

// for each compound below, give its CC50
1. C[C@]12CC[C@H](O)C[C@H]1CC[C@@H]1[C@@H]2CC[C@]2(C)[C@@H](C3=CC(=O)OC3)CC[C@]12O
2. C[C@H]1O[C@@H](O[C@H]2[C@@H](O)C[C@H](O[C@H]3[C@@H](O)C[C@H](O[C@H]4CC[C@@]5(C)[C@H](CC[C@@H]6[C@@H]5C[C@@H](O)[C@]5(C)[C@@H](C7=CC(=O)OC7)CC[C@]65O)C4)O[C@@H]3C)O[C@@H]2C)C[C@H](O)[C@@H]1O

### Response
[3.56, 1.19]

// for each compound below, give its CC50
1. CCN1Cc2c(c3ccc(OC)cc3c3cc(OC)c(OC)cc23)C(O)C1 (centres unmarked) [dbq33b]
2. CCN1CCc2c(c3cc(OC)c(OC)cc3c3cc(OC)ccc23)C1 [dbq29a]

### Response
1: 3.12; 2: 4.31

// for each compound below, give its CC50
1. COc1cc2c3c(c4cc(OC)c(OC)cc4c2cc1OC)CN1CCCCC1C3 (centres unmarked)
2. CO[C@H]1C[C@H](O[C@H]2CC[C@@]3(C)[C@H](CC[C@@H]4[C@@H]3CC[C@]3(C)[C@@H](C5=CC(=O)OC5)[C@@H](OC(C)=O)C[C@]43O)C2)O[C@@H](C)[C@@H]1O
3. C[C@]12CC[C@H](O)C[C@H]1CC[C@@H]1[C@@H]2CC[C@]2(C)[C@@H](c3ccc(=O)oc3)CC[C@]12O [Bufalin, bufalin, reference compound]
4. CCN1Cc2c(c3ccc(OC)cc3c3cc(OC)c(OC)cc23)C(O)C1C (centres unmarked)
5. C[C@@H]1O[C@@H](O[C@H]2C[C@@H](O)[C@]3(CO)[C@H]4[C@H](O)C[C@]5(C)[C@@H](C6=CC(=O)OC6)CC[C@]5(O)[C@@H]4CC[C@]3(O)C2)[C@H](O)[C@H](O)[C@H]1O

### Response
[3.09, 2.85, 0.542, 6.25, 6.25]
